- ASSAY SYSTEM: Type-1 angiotensin II receptor (Oryctolagus cuniculus) (UniProt P34976)
- Sequence (whole entry): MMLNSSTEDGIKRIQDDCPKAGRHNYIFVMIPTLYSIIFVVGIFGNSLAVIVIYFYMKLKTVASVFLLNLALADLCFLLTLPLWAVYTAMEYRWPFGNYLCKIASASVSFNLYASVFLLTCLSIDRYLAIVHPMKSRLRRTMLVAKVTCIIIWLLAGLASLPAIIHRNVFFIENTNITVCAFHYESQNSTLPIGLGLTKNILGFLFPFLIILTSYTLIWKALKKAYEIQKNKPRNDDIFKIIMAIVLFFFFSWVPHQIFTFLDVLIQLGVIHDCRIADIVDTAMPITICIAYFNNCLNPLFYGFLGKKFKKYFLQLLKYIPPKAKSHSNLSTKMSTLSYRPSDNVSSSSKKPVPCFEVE
- TEST DESCRIPTION: In vitro antagonist activity against Angiotensin II Receptor (Ang II) in isolated rabbit thoracic aorta.
- Type: functional, tissue-based

# MOLECULE, pKB
records = [
    ("CCCCCCC(C(=O)O)n1cnc2cc(-c3ccccc3S(=O)(=O)O)ccc21 (stereo in doubt; 4)", 7.7),
    ("CCCCCCC(C(=O)O)n1cnc(NC(=O)c2ccccc2S(=O)(=O)O)c1 (stereo not given)", 7.2),
    ("CCCCCC[C@H](C(=O)N1C[C@@H](Oc2ccccc2)C[C@H]1C(=O)O)n1cnc(NC(=O)c2ccccc2S(=O)(=O)O)c1", 9.1),
    ("CCCCCC[C@H](C(=O)N1C[C@@H](Oc2ccc(CC(=O)O)cc2)C[C@H]1C(=O)O)n1cnc(NC(=O)c2ccccc2S(=O)(=O)O)c1", 9.7),
    ("CCCCCC[C@@H](C(=O)N1C[C@@H](Oc2ccccc2)C[C@H]1C(=O)O)n1cnc(NC(=O)c2ccccc2S(=O)(=O)O)c1", 7.6),
]
